The following binders are shown together with reported MRC5 IC50 values.
target: Recombinant human IL-1β (BioLegend 579404) (human, UniProt P01584 117-269); experiment: cell-based or functional assay
Non-standard residues stand in square brackets, D forms with d. No end group written: not given here. Phe(4-(5-CO2H-2-pyrimidyl)) = N[C@@H](Cc1ccc(-c2ncc(C(=O)O)cn2)cc1)C(=O)O; dPro(4R-(4-pyridylmethyl)) = O=C(O)[C@H]1C[C@@H](Cc2ccncc2)CN1; Trp(βS-Me,4-F) = C[C@@H](c1c[nH]c2cccc(F)c12)[C@H](N)C(=O)O; Bip(4'-COOH) = N[C@@H](Cc1ccc(-c2ccc(C(=O)O)cc2)cc1)C(=O)O; Ala(1-bicyclo(1.1.1)pentyl) = N[C@@H](CC12CC(C1)C2)C(=O)O; Ala(morpholin-4-yl) = N[C@@H](CN1CCOCC1)C(=O)O; Ala(pyrimidin-5-yl) = N[C@@H](Cc1cncnc1)C(=O)O; Phe(4-COOH) = N[C@@H](Cc1ccc(C(=O)O)cc1)C(=O)O; Pro(cis-4-F) = O=C(O)[C@@H]1C[C@H](F)CN1; cisHyp = O=C(O)[C@@H]1C[C@H](O)CN1; d(αMeD) = C[C@@](N)(CC(=O)O)C(=O)O; 4Pal = N[C@@H](Cc1ccncc1)C(=O)O; d(αMeS) = C[C@@](N)(CO)C(=O)O; Dab = NCC[C@H](N)C(=O)O; Aib = CC(C)(N)C(=O)O
ENDPOINT: MRC5 IC50 (nM)

[[record]]
binder = "cyclo([Bip(4'-COOH)][Ala(1-bicyclo(1.1.1)pentyl)][Phe(4-COOH)]G[Pro(cis-4-F)][Trp(βS-Me,4-F)][Aib]EW[d(αMeS)][Ala(morpholin-4-yl)]QSG[dPro(4R-(4-pyridylmethyl))]) (ring closure inferred; not fully specified (bridges); printed as Bip4CO2H-AlaPent-Phe4COOH-G-Proc4F-SbMeW4F-Aib-E-W-daMeS-AlaMph-Q-S-G-dProc4CH24Pal, cyclic (macrolactam)) [SEQ ID NO: 177]"
endpoint = "MRC5 IC50"
data_value = 0.031

[[record]]
binder = "cyclo([Bip(4'-COOH)][4Pal][Phe(4-COOH)]G[cisHyp][Trp(βS-Me,4-F)][Aib]SW[d(αMeD)][Ala(pyrimidin-5-yl)]Q[Dab]G[dPro(4R-(4-pyridylmethyl))]) (ring closure inferred) [SEQ ID NO: 159]"
endpoint = "MRC5 IC50"
data_value = 0.013

[[record]]
binder = "[Phe(4-(5-CO2H-2-pyrimidyl))][4Pal][Phe(4-COOH)]G[Pro(cis-4-F)][Trp(βS-Me,4-F)][Aib]SW[Aib][Ala(pyrimidin-5-yl)]Q[Dab]G[dPro(4R-(4-pyridylmethyl))] (lactam (positions not given here); also: macrolactam ring, closure sites not given here) [SEQ ID NO: 186]"
endpoint = "MRC5 IC50"
data_value = 0.015

